Reported pIC50 values for a set of compounds
# tested-system: LTA4-h (Homo sapiens, UniProt P09960)
# Sequence (P09960 whole entry): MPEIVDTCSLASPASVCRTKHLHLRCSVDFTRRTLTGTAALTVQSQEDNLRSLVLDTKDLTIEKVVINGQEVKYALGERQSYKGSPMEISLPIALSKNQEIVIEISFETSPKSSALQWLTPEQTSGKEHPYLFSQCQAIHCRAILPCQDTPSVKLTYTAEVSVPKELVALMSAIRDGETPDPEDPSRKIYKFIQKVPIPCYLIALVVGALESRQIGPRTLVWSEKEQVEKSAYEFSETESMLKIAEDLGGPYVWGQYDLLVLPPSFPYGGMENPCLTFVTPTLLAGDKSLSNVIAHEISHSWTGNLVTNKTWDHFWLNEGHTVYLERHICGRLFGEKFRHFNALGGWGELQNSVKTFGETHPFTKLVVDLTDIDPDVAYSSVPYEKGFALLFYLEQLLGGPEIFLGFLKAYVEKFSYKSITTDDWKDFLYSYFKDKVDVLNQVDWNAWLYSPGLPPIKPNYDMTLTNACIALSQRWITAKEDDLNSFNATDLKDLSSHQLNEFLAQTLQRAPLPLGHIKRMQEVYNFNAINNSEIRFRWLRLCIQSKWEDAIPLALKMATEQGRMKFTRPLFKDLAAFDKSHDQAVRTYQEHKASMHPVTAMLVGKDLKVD
# method-description: peptidase (aminopeptidase) assay
# Assay type: biochemical
Remember, pIC50 is on a log scale: it is -log10 of the molar concentration.

compound="O=C(O)C1CCCN(c2ccc(CNCc3ccc(Oc4ccc(Cl)cc4)cc3)cn2)C1 (centres unmarked)" observed=8.41
compound="O=C(O)C1CCCN(c2ccc(CNCCc3ccc(Oc4ncccn4)cc3)cc2)C1 (centres unmarked)" observed=7.80
compound=COCCN(Cc1ccc(Oc2ccc(Cl)cc2)cc1)Cc1ccccc1Oc1cccc(C(=O)O)c1 observed=6.33
compound="CN(Cc1ccc(Oc2ccc(-c3ncco3)cc2)cc1)Cc1ccc(N2CCCC(C(=O)O)C2)nc1 (centres unmarked)" observed=7.48
compound="O=C(O)C1CCCN(c2ccc(CNCc3ccc(Oc4ncccn4)cc3)cn2)C1 (centres unmarked)" observed=7.89

Prompt: Recorded pIC50 for C=CCOc1ccc(CNCc2ccc(N3CCCC(C(=O)O)C3)nc2)cc1 (centres unmarked) with LTA4-h (Homo sapiens, UniProt P09960), please?
Response: 7.14

Prompt: Okay, and O=C(O)C1CCCN(c2ccc(CNCc3ccc(OCc4ccc(Cl)cc4)cc3)cn2)C1 (centres unmarked) ?
Response: 7.35

Prompt: Okay, and O=C(O)c1ccc(CNc2ccc(Oc3ccc(Cl)cc3)cc2)cc1 ?
Response: 6.07

Prompt: Okay, and O=C(O)C1CCCN(c2ccc(CNCc3ccc(Oc4ccc(CCO)cc4)cc3)cn2)C1 (centres unmarked) ?
Response: 7.68

Prompt: Okay, and CN(Cc1ccc(Oc2ccc(Cl)cc2)cc1)Cc1ccc(N2CCCC(C(=O)O)C2)nc1 (centres unmarked) [Compound 27] ?
Response: 7.32

Prompt: Okay, and CN(Cc1ccc(Oc2ccc(-c3ncco3)cc2)cc1)Cc1cccnc1Oc1ccc(C(=O)O)cc1 ?
Response: 7.92

Prompt: Okay, and O=C(O)C1CCCN(c2ccc(CNCc3ccc(Oc4ccc5c(c4)OCO5)cc3)cn2)C1 (centres unmarked) ?
Response: 8.10

Prompt: Okay, and CN(Cc1ccc(Oc2ccc(Cl)cc2)cc1)Cc1ccc(N2CCC(C(=O)O)CC2)nc1 ?
Response: 7.35

Prompt: Okay, and CC(C)=CCOc1ccc(CNCc2ccc(N3CCCC(C(=O)O)C3)nc2)cc1 (centres unmarked) ?
Response: 8.00

Prompt: Okay, and O=C(O)C1CCCN(c2ccc(CNCc3ccc(Oc4nc5ccccc5s4)cc3)cn2)C1 (centres unmarked) [Compound 30] ?
Response: 8.30

Prompt: Okay, and O=C(O)C1CCCN(c2ccc(CNCc3ccc(Oc4ccc(Cl)cc4)cc3)cc2F)C1 (centres unmarked) ?
Response: 7.35

Prompt: Okay, and O=C(O)C1CCN(c2ccc(CNCc3ccc(Oc4ccc(Cl)cc4)cc3)cn2)CC1 ?
Response: 7.17
